# Tested on: Escherichia coli
# procedure summary: Antimicrobial activity against Escherichia coli ATCC 25922 at 64 ug/mL after 24 hrs by broth microdilution assay
# Assay type: functional, organism-based
Active and inactive are the calls of the source. The calls are words filed in the database; no cut-off is given here.
metric: Activity

// known answers, use as guide
CO[C@H]1C[C@H]2C(C)(C)CCC[C@]2(C)c2ccc(O)c(C(C)C)c21: inactive
CC(C)c1c(O)ccc2c1C=C[C@H]1C(C)(C)CCC[C@]21C: inactive
CC(C)O[C@@H]1C[C@H]2C(C)(C)CCC[C@]2(C)c2ccc(O)c(C(C)C)c2O1: inactive
CO[C@@H]1C[C@H]2C(C)(C)CCC[C@]2(C)c2ccc(O)c(C(C)C)c21: inactive

Then this compound:
Supply Activity measured with Escherichia coli for CC(C)c1c(O)ccc2c1[C@H](O)C[C@H]1C(C)(C)CCC[C@]21C . inactive
